System: Plasmodium berghei (sensitive strain)
Test: Blood schizontocidal activity against Plasmodium berghei infection in mice
Type: in vivo
Conditions: P. berghei infected mice, oral, 4 doses D0 to D+3; suppressive = parasitaemia suppressed on D+4 and D+7, curative = cleared up to 28 days
quantity.kind: Biological activity at (mg/kg/days × 4)

Q. Tell me the measured Biological activity at (mg/kg/days × 4) of COc1cc(NC(C)CCCN)c2ncccc2c1C1CCCCC1 (stereo not drawn) , please.
A. Inactive at 100 mg/kg

Q. # lookup: Biological activity at (mg/kg/days × 4) of COc1cc(NC(C)CCCN)c2ncccc2c1C(C)C (stereo not drawn)
A. Inactive at 100 mg/kg

Q. // returns reported Biological activity at (mg/kg/days × 4) for input COc1cc(NC(C)CCCNC(=O)[C@@H](N)CCCN)c2nc(C(C)(C)C)ccc2c1 (stereo partly drawn)
A. Curative at 100 mg/kg

Q. I'd like to know its Biological activity at (mg/kg/days × 4). The molecule in question is COc1cc(NCCC(C)CN)c2nc(C(C)(C)C)cc(C)c2c1OC (stereo not drawn)
A. Curative at 100 mg/kg

Q. Data request, read-out Biological activity at (mg/kg/days × 4), for COc1cc(NC(C)CCCN)c2nc(C3CCCCC3)ccc2c1C1CCCCC1 (stereo not drawn)
A. Inactive at 100 mg/kg

Continuing:
Q. State the recorded Biological activity at (mg/kg/days × 4) for this entry: COc1cc(NC(C)CCCN)c2nc(C(C)C)ccc2c1C(C)C (stereo not drawn)
A. Inactive at 100 mg/kg

Q. What value of Biological activity at (mg/kg/days × 4) has been recorded for this entry: COc1cc(NC(C)CCCN)c2nc(C3CCCC3)ccc2c1C1CCCC1 (stereo not drawn)
A. Inactive at 100 mg/kg

Q. I have this molecule here, COc1cc(NC(C)CCCN)c2nc(C34CC5CC(CC(C5)C3)C4)ccc2c1 (stereo not drawn) , and I need its recorded Biological activity at (mg/kg/days × 4).
A. Inactive at 100 mg/kg

###

Tested on: Plasmodium berghei (sensitive strain)
Test: Blood schizontocidal activity against Plasmodium berghei infection in mice
Format: in vivo
Conditions: P. berghei infected mice, oral, 4 doses D0 to D+3; suppressive = parasitaemia suppressed on D+4 and D+7, curative = cleared up to 28 days
quantity.kind: Biological activity at (mg/kg/days × 4)

Q. Please provide the recorded Biological activity at (mg/kg/days × 4) for COc1cc(NC(C)CCCN)c2ncccc2c1C1CCCC1 (stereo not shown) , tested on Plasmodium berghei (sensitive strain).
A. Inactive at 100 mg/kg

Q. Reported Biological activity at (mg/kg/days × 4) for Plasmodium berghei (sensitive strain), given CCCCCOc1c(OC)cc(NC(C)CCCN)c2nc(C(C)(C)C)cc(CC)c12 (stereo not shown) ?
A. Curative at 100 mg/kg

Q. Test system Plasmodium berghei (sensitive strain); read-out Biological activity at (mg/kg/days × 4); what value for COc1cc(NC(C)CCCN)c2nc(C(C)(C)C)ccc2c1OC (stereo not shown) ?
A. Inactive at 100 mg/kg

Q. Lab note: need Biological activity at (mg/kg/days × 4) for CCCCCCCCOc1c(OC)cc(NC(C)CCCN)c2nc(C(C)(C)C)cc(CC)c12 (stereo not shown) on Plasmodium berghei (sensitive strain), anyone have it?
A. Curative at 100 mg/kg
